The following molecules are listed with their measured growth values.
- Test system: HT29 colon
- method.notes: NCI-60 one-dose screen, 48 h (100 = growth as untreated, 0 = no growth, -100 = all killed)
- recorded.conditions: 10 µM unless noted
- Protocol: Growth inhibition of the HT29 human tumor cell line is measured as a screen for anti-cancer activity. Cells are grown in 96 well plates and exposed to the test compound for 48 hours. Compounds are tested at a single concentration, which is 10^-5 M for most compounds. The reported endpoint is percent growth (GI% or GIPRCNT), where numbers from 0 - 100% represent growth inhibition, and numbers from -100% - 0 represent cell death. For example, a value of 40 represents 60% growth inhibition. […]
The panel holds about 83,000 compounds, 20% with a hit somewhere; the sample as a whole holds those more often.
Record the value in %, omitting the unit from your answer.

Solved cases (4 shown):
[[record]]
molecule = "O=C1c2c(c3c4cccnc4[nH]c3c3ccc4ccccc4c23)C(=O)N1CCN1CCOCC1"
assayed_target = "HT29 colon"
endpoint = "growth"
observed_value = 53.3

[[record]]
molecule = "N=c1c2cc(-c3ccccc3)oc2ncn1/N=C/c1ccccc1"
assayed_target = "HT29 colon"
endpoint = "growth"
observed_value = 73.6

[[record]]
molecule = "CCCC(=O)NC(c1cccnc1)c1cc(C(C)=O)c2cccnc2c1O (stereo not given)"
assayed_target = "HT29 colon"
endpoint = "growth"
observed_value = 26.9

[[record]]
molecule = "COc1cc(-c2noc(C[C@@H](NC(=O)OCc3ccccc3)C(C)C)n2)cc(OC)c1OC"
assayed_target = "HT29 colon"
endpoint = "growth"
observed_value = 104


Please turn your attention to the following entry.
Identify measured growth associated with COc1ccc(/C=N\NC(=O)c2ccc3nc(-c4ccc(Br)cc4)[nH]c3c2)cc1 17.5

====

Measured growth, listed per entry.
- System: HOP-92 NSCLC
- method.notes: NCI-60 one-dose screen, 48 h (100 = growth as untreated, 0 = no growth, -100 = all killed)
- recorded.conditions: 10 µM unless noted
This is part of a sample that, as a whole, favours compounds with a hit. Of some 83,000 tested, about 20% had one in any assay.
Please respond with the number in % and leave the unit unwritten.

[[record]]
compound = "COc1cc(/C=C/C(=O)c2ccc(NC(=O)CSc3nnc(-c4ccc5nc(-c6ccccc6)[nH]c5c4)o3)cc2)cc(OC)c1OC"
unit_abbreviation = "%"
observed_value = 142

[[record]]
compound = "CCOC(=O)/C=c1\\sc2n(c1=O)C1C(NN=2)N(CC)C(=O)N1CC (stereo not drawn)"
unit_abbreviation = "%"
observed_value = 75.3

[[record]]
compound = "C#C[C@]1(O)CC[C@H]2[C@@H]3CC=C4c5sc(-c6cccc(F)c6)nc5CC[C@]4(C)[C@H]3CC[C@@]21C"
unit_abbreviation = "%"
observed_value = 113

[[record]]
compound = "C#C[C@]1(O)CC[C@H]2[C@@H]3CC=C4c5sc(Nc6nc(C)cc(OC)n6)nc5CC[C@]4(C)[C@H]3CC[C@@]21C"
unit_abbreviation = "%"
observed_value = 43.9

[[record]]
compound = "Cc1ccc(-c2cc3nc(C(Cl)Cl)nc(-c4ccccc4)n3n2)cc1"
unit_abbreviation = "%"
observed_value = 94.9

[[record]]
compound = "Brc1cccc(/C=N/Nc2nc(N/N=C/c3cccc(Br)c3)nc(N3CCOCC3)n2)c1"
unit_abbreviation = "%"
observed_value = 63.8


Could you now look at the following compound, please?
Recall and state the measured growth for O=C(Nc1ccccc1)Nc1nc2ccc([N+](=O)[O-])cc2s1 . -22.2

====

- Tested on: SN12C renal
- method.notes: NCI-60 one-dose screen, 48 h
- recorded.conditions: 10 µM unless noted
About 83,000 compounds went through this panel and 20% of them were active in at least one assay; those are over-represented in the sample as a whole. Calls of active or inactive are those of the source. The calls were made as follows: active = growth percent below 10; inactive = the rest.
Return exactly one item of class 1 = active, class 0 = inactive

[[record]]
molecule = "O=C(NNc1nc2cc(F)cc(F)c2n2cccc12)c1ccncn1"
category_label = "class 0"

[[record]]
molecule = "CCN1CCN(c2cc(C(=O)Nc3nc4ccc(Oc5ccnc(C(=O)NC)c5)cc4s3)cc(C(F)(F)F)c2)CC1"
category_label = "class 0"

[[record]]
molecule = "COc1cc(CNC(=O)/C=C/c2ccccc2)ccc1OCC(=O)NO"
category_label = "class 0"

[[record]]
molecule = "COc1cc2c3c(n(CCCNC4CCCCC4)c(=O)c2cc1OC)-c1cc2c(cc1C3=O)OCO2"
category_label = "class 1"

[[record]]
molecule = "Oc1ccc(CSc2nnc(-c3ccc(Oc4ccccc4)cc3)n2-c2ccccc2)c2cccnc12"
category_label = "class 0"

[[record]]
molecule = "CS(=O)(=O)c1nccc(-c2c(-c3ccc(F)c(OCc4ccccc4)c3)nc3sccn23)n1"
category_label = "class 0"

[[record]]
molecule = "CS(=O)c1nccc(-c2c(-c3ccc(F)c(OCCc4ccc(F)cc4)c3)nc3sccn23)n1 (centres undefined)"
category_label = "class 0"

[[record]]
molecule = "Cc1cnc2nc(NN)[nH]n12"
category_label = "class 0"


For COc1ccc(/C=C/C(=O)c2nnn(-c3ccc(Br)cc3)c2C)cc1OC , which call appears in the assay record? class 0

Assay result, entry NC(=O)c1c(NC(=O)c2cccc(C(F)(F)F)c2F)sc2c1CCC(=O)C2 — outcome? class 0

Hey, what did the test say about O=C(NNc1nc2cc(F)c(F)cc2n2cccc12)c1ncccn1 ? class 0

Please indicate how the test categorized O=c1[nH]c(CCl)nc2c1cnn2-c1ccccc1 . class 0

====

- System: MDA-MB-231 breast
- method.notes: NCI-60 one-dose screen, 48 h (100 = growth as untreated, 0 = no growth, -100 = all killed)
- recorded.conditions: 10 µM unless noted
About 83,000 compounds went through this panel and 20% of them were active in at least one assay; those are over-represented in the sample as a whole.
endpoint: growth (%)
Report the figure in % without appending any unit label.

[[record]]
entry_smiles = "COc1ccc2c(C3=C(c4cn(C)c5ccccc45)C(=O)NC3=O)coc2c1"
endpoint = "growth"
unit_abbreviation = "%"
observed_value = 30.4

[[record]]
entry_smiles = "Cc1cc(-c2ccc3nc(N)sc3c2)nc2ccc3[nH]ncc3c12"
endpoint = "growth"
unit_abbreviation = "%"
observed_value = 46.2

[[record]]
entry_smiles = "N/C(=N\\OC(=O)CSc1nc2ccccc2s1)c1ccc(Cl)cc1"
endpoint = "growth"
unit_abbreviation = "%"
observed_value = 92


Respond only with growth recorded for C/C(=N/Nc1nc(N/N=C(/C)c2ccc([N+](=O)[O-])cc2)nc(N2CCOCC2)n1)c1ccc([N+](=O)[O-])cc1 43.5

Find the measured growth of CS(=O)(=O)c1ccc(-c2nn(-c3ccccc3)cc2/C=C/C(=O)c2ccc(Br)cc2)cc1 and report it. 88.3

====

- Test system: CCRF-CEM leukemia
- method.notes: NCI-60 one-dose screen, 48 h (100 = growth as untreated, 0 = no growth, -100 = all killed)
- recorded.conditions: 10 µM unless noted
This is part of a sample that, as a whole, favours compounds with a hit. Of some 83,000 tested, about 20% had one in any assay.
endpoint: growth (%)
Give the value in % but do not write % after it.

Observe how each entry below is paired with its result.
[[record]]
molecule = "CCOC(=O)C1=C(C)Nc2nnc(Nc3ccccc3)n2C1c1ccccc1 (centres undefined)"
observed_value = 69.5

[[record]]
molecule = "CCN1C(=O)N(CC)C2SC(N/N=C/c3cccs3)=NC21 (centres undefined)"
observed_value = 17.8

[[record]]
molecule = "COC(=O)c1c(C(=O)OC)c2n(CC(=O)Nc3cccc4cccnc34)c3ccccc3n2c1C(=O)c1ccc(C)cc1"
observed_value = 95.4

[[record]]
molecule = "Oc1ccc(CSc2nnc(-c3ccccc3)n2-c2ccccc2)c2cccnc12"
observed_value = 9.93

[[record]]
molecule = "CCOC(=O)C1=C(C)Nc2nc3ccccc3n2C1c1ccccc1 (centres undefined)"
observed_value = 94


Provide the reported growth (system: CCRF-CEM leukemia) for CN1CCN(Cc2ccc(NC(=O)c3cncc(C#Cc4cnc5ccc(NC6CCOCC6)nn45)c3)cc2C(F)(F)F)CC1 3.15

====

- Test system: NCI-H522 lung
- method.notes: NCI-60 one-dose screen, 48 h
- recorded.conditions: 10 µM unless noted
About 83,000 compounds went through this panel and 20% of them were active in at least one assay; those are over-represented in the sample as a whole. Activity calls are given as the source filed them. How the source made its calls: active means growth percent below 10; inactive means the rest.
Returns: one label drawn from active, inactive

# count of solved cases: 3
[[record]]
compound = "CC[C@@](C)(NC(=O)C(C)(C)NC(=O)[C@@H](NC(=O)[C@@H]1CCCN1C(=O)C(C)(C)NC(=O)[C@H](CC(C)C)NC(=O)CNC(=O)C(C)(C)NC(=O)[C@@H](NC(=O)C(C)(C)NC(=O)[C@H](CCC(N)=O)NC(=O)[C@H](C)NC(=O)C(C)(C)NC(=O)[C@H](C)NC(=O)C(C)(C)NC(=O)[C@H](C)NC(=O)C(C)(C)NC(C)=O)C(C)C)C(C)C)C(=O)N[C@@H](CCC(N)=O)C(=O)N[C@@H](CCC(N)=O)C(=O)N[C@H](CO)CC1CCCCC1"
category_label = "active"

[[record]]
compound = "CCC(CC)N1C(=O)/C(=c2\\sc3n(c2=O)C2C(NN=3)N(CC)C(=O)N2CC)c2ccccc21 (stereo not drawn)"
category_label = "inactive"

[[record]]
compound = "CCCCCCNC(=O)Oc1ccc(/C(=C(\\C)c2ccc(Cl)cc2)c2ccc(OCCN(C)C)cc2)cc1"
category_label = "inactive"


Test call, this compound: CCOC(=O)Nc1cccc(-n2cnc3cc(-c4ccc(O)cc4)ccc32)c1 active

How was COc1ccc(NC(=O)[C@H](C)N)cc1C(=O)Nc1cccc(-c2cc(=O)c3c(OC)c(OC)c(OC)cc3o2)c1 classified in this test? inactive

Check the results log: what was the call for O=C(NCCCNc1cc(-c2cn(-c3ccccc3)nc2-c2cccc(O)c2)ccn1)Nc1cc(C(F)(F)F)cc(C(F)(F)F)c1 ? inactive

Outcome? CC(=O)C1=NN(c2ccc(Cl)cc2)C(=O)CN1C inactive

Status in this test for O=C1c2c(c3c4cc(Br)ccc4[nH]c3c3ccc4ccccc4c23)C(=O)N1CCN1CCNCC1 ? inactive

For this compound, state the assay outcome: O=C(COc1ccc(C2SCC(=O)N2c2ccccc2)cc1)c1ccccc1 (stereo not drawn) inactive

Record lookup: outcome of this test for CC1OC(O[C@@H]2[C@H](O)C(CO)OC(O[C@H]3COC(O[C@H]4CC[C@]5(C)[C@H]6CC[C@]78OC[C@@]9(CC[C@](C)(C=O)C[C@H]97)C(=O)C[C@@]8(C)[C@]6(C)CC[C@H]5C4(C)C)[C@@H](O)[C@@H]3O)[C@H]2OC2OC[C@@H](O)[C@@H](O)[C@@H]2O)[C@@H](O)[C@@H](O)[C@H]1O (stereo partly drawn) ? inactive

Could you kindly confirm the outcome this assay logged for Nc1nc(N)c2c(n1)NC(c1ccccc1)CC(c1ccc(Nc3nc(NCCO)nc(Nc4ccc(Cl)cc4)n3)cc1)=N2 (stereo not drawn) ? inactive

// outcome(item) with item = N#Cc1c(NC(=O)c2ccccc2C(F)(F)F)sc2c1CCC(=O)C2 active

Can you look up the reported call for Cc1cn(-c2cc(NC(=O)c3cncc(C#Cc4cnc5ccc(O[C@@H]6CCOC6)nn45)c3)cc(C(F)(F)F)c2)cn1 for me? active
